Entries annotated with measured pest or weed control at 500 g/ha
# Tested on: Galium (catchweed bedstraw, Galium aparine)
# Experimental Protocol: Test A postemergence
# Format: in vivo
# Recorded Conditions: Galium, post-emergence, 240 h, 500 g ai/ha, postemergence; 0 to 100 scale, 0 is no effect, 100 is complete control; read-out: Galium plant response rating
# unit: % | format: bare number

Molecule	Units Of Measure	pest or weed control at 500 g/ha
CN1C[C@H](c2ccc3c(c2)OCO3)[C@@H](C(=O)Nc2cccc(F)c2F)C1=O	%	40
CN1CC[C@H](c2ccc(C(F)(F)F)cc2)[C@@H](C(=O)Nc2ccccc2C(F)(F)F)C1=O	%	40
CN1C[C@H](c2ccc(C#N)cc2)[C@@H](C(=O)Nc2ccc(F)c(F)c2F)C1=O	%	50
Cc1ccc([C@H]2CCN(C)C(=O)[C@@H]2C(=O)Nc2ccccc2C(F)(F)F)cc1	%	0
Cc1cc([C@H]2CN(C)C(=O)[C@@H]2C(=O)Nc2cccc(F)c2F)on1	%	0

Name the recorded pest or weed control at 500 g/ha for CN1C[C@H](c2cc(F)cc(F)c2)[C@@H](C(=O)Nc2ccncc2F)C1=O .
0

Name the recorded pest or weed control at 500 g/ha for Cc1ccc([C@H]2CN(C)C(=O)[C@]2(O)C(=O)Nc2cccc(F)c2F)cc1 (racemic) .
0

Name the recorded pest or weed control at 500 g/ha for CSc1ccccc1NC(=O)[C@H]1C(=O)NC[C@@H]1c1cc(F)c(F)c(F)c1 .
60

----------
# System: giant foxtail (Setaria faberii)
# Experimental Protocol: Test A postemergence
# Format: in vivo
# Recorded Conditions: Setaria faberi, post-emergence, 240 h, Postemergence, 31 g ai/ha; visual injury after approx. 10 d; 0 to 100 scale, 0 no effect, 100 complete control; read-out: Plant response rating, Foxtail, Giant
Observed Property: pest or weed control at 31 g/ha (%)
# unit: % | format: bare number

Some compounds with recorded pest or weed control at 31 g/ha:
COc1cccc([C@H]2CN(C)C(=O)[C@@H]2C(=O)Nc2cccc(F)c2F)c1F 80
CON1CC[C@H](c2cccc(C(F)(F)F)c2)[C@@H](C(=O)Nc2cccc(F)c2F)C1=O 30

--- query ---
Name the recorded pest or weed control at 31 g/ha for CN1C[C@H](c2csc3c2CCCC3)[C@@H](C(=O)Nc2ccc(F)c(F)c2F)C1=O .
0

----------
# Tested on: giant foxtail (Setaria faberi)
# Experimental Protocol: Test G Post-Emergence Protocol
# Assay type: in vivo
# Recorded Conditions: Setaria faberi, post-emergence, 312 h, 15.625 g ai/ha, evaluated after 13 days (100=total damage to plant; 0=no damage to plant), read-out: Foxtail, Giant damage rating
Entries annotated with measured pest or weed control at 15.625 g/ha
# unit: % | format: bare number

Some compounds with recorded pest or weed control at 15.625 g/ha:
Compound	pest or weed control at 15.625 g/ha, %
CN1C[C@@H](c2ccc(C(F)(F)F)cc2)[C@H](C(=O)Nc2cc(O)nc(C(F)(F)F)n2)C1=O (racemic)	0
CN1C[C@@H](c2ccc(C(F)(F)F)cc2)[C@H](C(=O)Nc2cc(C(F)(F)F)no2)C1=O (racemic)	0
COC(=O)c1cc([C@H]2CN(C)C(=O)[C@@H]2C(=O)Nc2ccccc2F)ccc1F (racemic)	0
CN1C[C@@H](c2ccc(C(F)(F)F)nc2)[C@H](C(=O)Nc2cccc(F)c2F)C1=O (racemic)	30
Cc1cccc(NC(=O)[C@H]2C(=O)N(C)C[C@@H]2c2ccc(C(F)(F)F)cc2)c1C#N (racemic)	40
CN1C[C@@H](c2ccc(C(F)(F)F)cc2)[C@H](C(=O)Nc2nnc(C(F)(F)F)o2)C1=O (racemic)	0

Name the recorded pest or weed control at 15.625 g/ha for Cc1nonc1NC(=O)[C@@H]1C(=O)N(C)C[C@H]1c1ccc(C(F)(F)F)cc1 (racemic) .
0

Name the recorded pest or weed control at 15.625 g/ha for C=CCc1ccc(Cl)cc1NC(=O)[C@H]1C(=O)N(C)C[C@@H]1c1ccc(C(F)(F)F)cc1 (racemic) .
0

Name the recorded pest or weed control at 15.625 g/ha for Cc1c(F)cccc1NC(=O)[C@@H]1C(=O)N(C)C[C@H]1c1cccc(C(C)(C)F)c1 (racemic) .
50
